The measurements presented in this section are drawn from ChEMBL document CHEMBL3421527.

assay: Selectivity index, ratio of IC50 for mouse RAW264.7 cells to MIC for Mycobacterium tuberculosis H37Rv ATCC 27294; format: toxicity; details: read-out: Selectivity Index
quantity name: selectivity ratio
Answer using only a numeral; do not append any unit.

| chemical structure | quantity name | readout value |
| --- | --- | --- |
| O=C(N/N=C/c1cn(Cc2cc(-c3ccccc3)cnc2N2CCSCC2)nn1)c1ccc(F)cc1 | selectivity ratio | 60 |

Summary for this compound, Cc1cnc(N2CCSCC2)c(Cn2cc(/C=N/NC(=O)c3ccc(C(F)(F)F)cc3)nn2)c1 : selectivity ratio is 136

# selectivity ratio (compound: O=C(N/N=C/c1cn(Cc2cc(-c3ccccc3)cnc2N2CCSCC2)nn1)c1ccc(C(F)(F)F)cc1 ) is 189

selectivity ratio reading for O=C(N/N=C/c1cn(Cc2cc(-c3ccccc3)cnc2Cl)nn1)c1ccc(C(F)(F)F)cc1 : 200

Input O=C(N/N=C/c1cn(Cc2cc(-c3ccccc3)cnc2Cl)nn1)c1ccc(F)cc1 . Output selectivity ratio: 97

Noted for Cc1cnc(Cl)c(Cn2cc(/C=N/NC(=O)c3ccc(C(F)(F)F)cc3)nn2)c1 : its selectivity ratio reads 165

Recorded result, Cc1ccc(-c2cnc(N3CCSCC3)c(Cn3cc(/C=N/NC(=O)c4ccc(C(F)(F)F)cc4)nn3)c2)cc1 , selectivity ratio: 104

====

Selectivity Index values, listed per item
assay: Selectivity index, ratio of IC50 for PBMC (unknown origin) to MIC for Mycobacterium tuberculosis H37Rv ATCC 27294
Give the figure only, with no unit attached.

As a guide, the following entries are already answered.
| chemical structure | readout value |
| --- | --- |
| O=C(N/N=C/c1cn(Cc2cc(-c3ccccc3)cnc2Cl)nn1)c1ccc(C(F)(F)F)cc1 | 180 |
| O=C(N/N=C/c1cn(Cc2cc(-c3ccccc3)cnc2Cl)nn1)c1ccc(F)cc1 | 228 |

Selectivity Index in this record for Cc1cnc(Cl)c(Cn2cc(/C=N/NC(=O)c3ccc(C(F)(F)F)cc3)nn2)c1 : 216

Record O=C(N/N=C/c1cn(Cc2cc(-c3ccccc3)cnc2N2CCSCC2)nn1)c1ccc(C(F)(F)F)cc1 . Reported Selectivity Index: 120

Recorded Selectivity Index (compound Cc1cnc(N2CCSCC2)c(Cn2cc(/C=N/NC(=O)c3ccc(C(F)(F)F)cc3)nn2)c1 ): 224
